- Tested on: SK-OV-3
- experimental-protocol: NCI tumour cell line growth inhibition, 48 h
Calls of active or inactive are those of the source. Cut-off read from the data, not from the text of the source: active = GI50 up to about 1.1 µM and inactive = higher.
Listed next: entries and their corresponding GI50.

compound	GI50
O=C(O)C1=C(C(=O)Nc2ccccc2)C2C=CC1C2 (centres undefined)	> 100 µM (inactive)
Cc1nc2c(o1)C(=O)c1ccccc1/C2=N/c1ccccn1	> 100 µM (inactive)

Q. I am curious: what GI50 value has been reported for C[C@]12CCCC(=O)C1(O)C[C@H](C(=O)O)CC2 (some centres undefined) ?
A. > 100 µM (inactive)

Q. GI50 lookup needed for Brc1ccccc1-c1ncc(-c2ccccc2)o1 , thanks.
A. 31.1 µM (inactive)

---

- Tested on: OVCAR-3
- experimental-protocol: NCI tumour cell line growth inhibition, 48 h
Calls of active or inactive are those of the source. No stated cut-off is given here; in the data, active = GI50 up to about 1.1 µM and inactive = higher.
Quick reference: GI50 of the listed items.

compound	target-of-assay	GI50
COc1cc(OC(=O)c2c(O)cc(O)c(O)c2C)cc(C)c1C(=O)Oc1cc(C)c(C(=O)O)c(O)c1	OVCAR-3	> 100 µM (inactive)
O=C1CCCC2=C(N1)C(=O)C=CC2=O	OVCAR-3	43.5 µM (inactive)
N=C1C=CC(=C(c2ccc(N)cc2)c2ccc(N)cc2)C=C1	OVCAR-3	10 µM (inactive)
Cc1ccc(NC(=O)S(N)(c2ccc(C)cc2)[N+](=O)[O-])cc1 (configuration not stated)	OVCAR-3	> 100 µM (inactive)
O/N=C1\CCc2nonc2\C1=N/Nc1ccccc1	OVCAR-3	> 100 µM (inactive)

Q. What value of GI50 has been recorded for this entry: Cc1cc2nc(-c3cc(C(C)(C)C)c(O)c(C(C)(C)C)c3)[nH]c2cc1C
A. 11.6 µM (inactive)

Q. Which GI50 value belongs to CCN(CC)CCC(=O)OC1C(C)=CC(C)C(=O)CC(C(C)CC2CCC(O)C(OC)C2)OC(=O)C2CCCCN2C(=O)C(=O)[C@@]2(O)OC(CCC2C)CC(OC)\C(C)=C/C=C/C=C/C(C)CC(C)C(=O)C1OC (some centres not stated) ?
A. 11.2 µM (inactive)

Q. I am curious: what GI50 value has been reported for COc1cc2cc3c4c(cc(OC)c(OC)c4c2cc1OC)CCN3C(=O)N(C)C ?
A. > 100 µM (inactive)

Q. Given the entry Cc1cnc2c(c1C)C(=O)c1ccccc1C2=O , report its measured GI50.
A. 3.48 µM (inactive)

---

- Test system: HL-60
- experimental-protocol: NCI tumour cell line growth inhibition, 48 h
Activity calls are given as the source filed them. No stated cut-off is given here; in the data, active = GI50 up to about 1.1 µM and inactive = higher.
// values below are reported GI50

compound	GI50
COc1cc(OC(=O)c2c(O)cc(O)c(O)c2C)cc(C)c1C(=O)Oc1cc(C)c(C(=O)O)c(O)c1	> 100 µM (inactive)
CC(=O)OCC1OC(n2c(C)cc(C)c(C#N)c2=S)C(OC(C)=O)C(OC(C)=O)C1OC(C)=O (centres undefined)	> 100 µM (inactive)
COC(=O)/C=c1/c2ccccc2n2c1c1ccccc1[n+]2C	2.84 µM (inactive)

Next compound, GI50 to be filled in.
Q. Need GI50, item COC(=O)/C(=N\N)C(C(=O)C(=O)Nc1cccc([N+](=O)[O-])c1)c1nc2ccc(C(=O)c3ccccc3)cc2nc1O (centres undefined)
A. 32.5 µM (inactive)
